Data origin: PubChem BioAssay AID1963828

# System: 991263-137-R1-J2-PDC complex spheroid viability
# measurement_notes: Anticancer human tumor 991263-137-R1-J2-PDC patient-derived colon adenocarcinoma cell line growth inhibition [POLQ]
# experimental_parameters: second compound 0.0316 µM; first compound 10 µM; stronger effect = lower value
Please note: viability, T/C exactly at 70% is false (0). Only values below 70% get true (1).

compound | group
Nc1ccn(C2OC(CO)C(O)C2(F)F)c(=O)n1 (stereo not given) + Cc1cccc(N(C)C(=O)C2C(O)CCN2c2nc(C)cc(C(F)(F)F)c2C#N)c1 | true (1)
CC1COCCN1c1cc(C2(S(C)(=N)=O)CC2)nc(-c2ccnc3[nH]ccc23)n1 (stereo not given) + COC1C(OC(N)=O)C(O)C(Oc2ccc3c(O)c(NC(=O)c4ccc(O)c(CC=C(C)C)c4)c(=O)oc3c2C)OC1(C)C | true (1)
CCc1cc2c(N3CCc4c(cc(Cn5ccnc5)cc4-c4cn(C)nc4C(F)(F)F)C3=O)ccnc2c(OC)n1 + Cc1cccc(N(C)C(=O)C2C(O)CCN2c2nc(C)cc(C(F)(F)F)c2C#N)c1 | false (0)
CC1COCCN1c1cc(-c2ccnn2C)c2ccnc(-c3ccn[nH]3)c2n1 (stereo not given) + COC1C(OC(N)=O)C(O)C(Oc2ccc3c(O)c(NC(=O)c4ccc(O)c(CC=C(C)C)c4)c(=O)oc3c2C)OC1(C)C | true (1)
CCc1cc2c(N3CCc4c(cc(Cn5ccnc5)cc4-c4cn(C)nc4C(F)(F)F)C3=O)ccnc2c(OC)n1 + Nc1ccc(C#CCN(C(=O)Cc2ncc(C(F)(F)F)cc2C(F)(F)F)c2ccc(F)cc2)nn1 | false (0)

----------
# Tested on: 991263-137-R1-J2-PDC complex spheroid viability
# measurement_notes: Anticancer human tumor 991263-137-R1-J2-PDC cell line growth inhibition [POLQ];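 further: spheroids exposed to compounds for 7 days before readout; 100% = DMSO vehicle control viability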
# experimental_parameters: second compound 0.1 µM; first compound 10 µM; stronger effect = lower value

molecule | scale_unit | viability, T/C
O=c1[nH]cc(F)c(=O)[nH]1 + Cc1cccc(N(C)C(=O)C2C(O)CCN2c2nc(C)cc(C(F)(F)F)c2C#N)c1 | % | 82.3
Nc1ccn(C2OC(CO)C(O)C2(F)F)c(=O)n1 (stereo unspecified) + COC1C(OC(N)=O)C(O)C(Oc2ccc3c(O)c(NC(=O)c4ccc(O)c(CC=C(C)C)c4)c(=O)oc3c2C)OC1(C)C | % | 42
CCc1cc2c(N3CCc4c(cc(Cn5ccnc5)cc4-c4cn(C)nc4C(F)(F)F)C3=O)cc(C)nc2c(OC)n1 + COC1C(OC(N)=O)C(O)C(Oc2ccc3c(O)c(NC(=O)c4ccc(O)c(CC=C(C)C)c4)c(=O)oc3c2C)OC1(C)C | % | 101
CCCS(=O)(=O)Nc1ccc(F)c(C(=O)c2c[nH]c3ncc(-c4ccc(Cl)cc4)cc23)c1F + COC1C(OC(N)=O)C(O)C(Oc2ccc3c(O)c(NC(=O)c4ccc(O)c(CC=C(C)C)c4)c(=O)oc3c2C)OC1(C)C | % | 109
CC1COCCN1c1cc(C2(O)CC3CCC(C2)O3)c2cnn(-c3ccn[nH]3)c2n1 (stereo unspecified) + Cc1cccc(N(C)C(=O)C2C(O)CCN2c2nc(C)cc(C(F)(F)F)c2C#N)c1 | % | 29.2
O=C(Nc1ccc(O)c(NS(=O)(=O)c2ccc(F)cc2)c1)c1ccc(-c2ccccc2)cc1 + Nc1ccc(C#CCN(C(=O)Cc2ncc(C(F)(F)F)cc2C(F)(F)F)c2ccc(F)cc2)nn1 | % | 107
O=C(c1cc(Cc2n[nH]c(=O)c3ccccc23)ccc1F)N1CCN(C(=O)C2CC2)CC1 + Cc1cccc(N(C)C(=O)C2C(O)CCN2c2nc(C)cc(C(F)(F)F)c2C#N)c1 | % | 99
COc1cc(C2c3cc4c(cc3C(OC3OC5COC(C)OC5C(O)C3O)C3COC(=O)C23)OCO4)cc(OC)c1O (stereo unspecified) + Cc1cccc(N(C)C(=O)C2C(O)CCN2c2nc(C)cc(C(F)(F)F)c2C#N)c1 | % | 73.1
COc1cc(C2c3cc4c(cc3C(OC3OC5COC(C)OC5C(O)C3O)C3COC(=O)C23)OCO4)cc(OC)c1O (stereo unspecified) + COC1C(OC(N)=O)C(O)C(Oc2ccc3c(O)c(NC(=O)c4ccc(O)c(CC=C(C)C)c4)c(=O)oc3c2C)OC1(C)C | % | 83.3
Nc1ccn(C2OC(CO)C(O)C2(F)F)c(=O)n1 (stereo unspecified) + Nc1ccc(C#CCN(C(=O)Cc2ncc(C(F)(F)F)cc2C(F)(F)F)c2ccc(F)cc2)nn1 | % | 47.6
C=CC(=O)N1CCN(c2nc(=O)n(-c3c(C)ccnc3C(C)C)c3nc(-c4c(O)cccc4F)c(F)cc23)C(C)C1 (stereo unspecified) + COC1C(OC(N)=O)C(O)C(Oc2ccc3c(O)c(NC(=O)c4ccc(O)c(CC=C(C)C)c4)c(=O)oc3c2C)OC1(C)C | % | 95.5
